# CONDITION LABEL: in acetone, 283.15 K
PROPERTY NAME: solubility (mole fraction)
Kindly provide the number alone.

The molecule listed as CCOc1ccc(C=O)cc1O shows solubility (mole fraction) equal to 0.0425

====

# CONDITION LABEL: in methyl acetate, 283.15 K
PROPERTY NAME: solubility (mole fraction)
Kindly provide the number alone.

The compound listed as CCOc1ccc(C=O)cc1O shows solubility (mole fraction) equal to 0.0166

====

# CONDITION LABEL: in methanol, 323.15 K
PROPERTY NAME: solubility (mole fraction)
Kindly provide the number alone.

The compound listed as CCOc1ccc(C=O)cc1O shows solubility (mole fraction) equal to 0.0635

====

# CONDITION LABEL: in ethyl acetate, 303.15 K
PROPERTY NAME: solubility (mole fraction)
Kindly provide the number alone.

The compound listed as CCOc1ccc(C=O)cc1O shows solubility (mole fraction) equal to 0.0288

====

# CONDITION LABEL: in isopropyl acetate, 288.15 K
PROPERTY NAME: solubility (mole fraction)
Kindly provide the number alone.

The compound listed as CCOc1ccc(C=O)cc1O shows solubility (mole fraction) equal to 0.0156

====

# CONDITION LABEL: in methanol, 283.15 K
PROPERTY NAME: solubility (mole fraction)
Kindly provide the number alone.

The compound listed as CCOc1ccc(C=O)cc1O shows solubility (mole fraction) equal to 0.0072

====

# CONDITION LABEL: in isopropyl acetate, 323.15 K
PROPERTY NAME: solubility (mole fraction)
Kindly provide the number alone.

The compound listed as CCOc1ccc(C=O)cc1O shows solubility (mole fraction) equal to 0.0457

====

# CONDITION LABEL: in isopropanol, 298.15 K
PROPERTY NAME: solubility (mole fraction)
Kindly provide the number alone.

The compound listed as CCOc1ccc(C=O)cc1O shows solubility (mole fraction) equal to 0.0082

====

# CONDITION LABEL: in isopropanol, 323.15 K
PROPERTY NAME: solubility (mole fraction)

The compound listed as CCOc1ccc(C=O)cc1O shows solubility (mole fraction) equal to 0.0277

====

# CONDITION LABEL: in isopropyl acetate, 303.15 K
PROPERTY NAME: solubility (mole fraction)

The compound listed as CCOc1ccc(C=O)cc1O shows solubility (mole fraction) equal to 0.0227

====

# CONDITION LABEL: in acetonitrile, 303.15 K
PROPERTY NAME: solubility (mole fraction)

The compound listed as CCOc1ccc(C=O)cc1O shows solubility (mole fraction) equal to 0.0228

====

# CONDITION LABEL: in methyl acetate, 298.15 K
PROPERTY NAME: solubility (mole fraction)
Kindly provide the number alone.

The compound listed as CCOc1ccc(C=O)cc1O shows solubility (mole fraction) equal to 0.0301

====

# CONDITION LABEL: in toluene, 303.15 K
PROPERTY NAME: solubility (mole fraction)
Kindly provide the number alone.

The compound listed as CCOc1ccc(C=O)cc1O shows solubility (mole fraction) equal to 0.0057

====

# CONDITION LABEL: in THF, 288.15 K
PROPERTY NAME: solubility (mole fraction)
Kindly provide the number alone.

The compound listed as CCOc1ccc(C=O)cc1O shows solubility (mole fraction) equal to 0.0624

====

# CONDITION LABEL: in methanol, 303.15 K
PROPERTY NAME: solubility (mole fraction)
Kindly provide the number alone.

The compound listed as CCOc1ccc(C=O)cc1O shows solubility (mole fraction) equal to 0.0206

====

# CONDITION LABEL: in ethanol, 313.15 K
PROPERTY NAME: solubility (mole fraction)
Kindly provide the number alone.

The molecule listed as CCOc1ccc(C=O)cc1O shows solubility (mole fraction) equal to 0.0224

====

# CONDITION LABEL: in methanol, 308.15 K
PROPERTY NAME: solubility (mole fraction)
Kindly provide the number alone.

The molecule listed as CCOc1ccc(C=O)cc1O shows solubility (mole fraction) equal to 0.0268

====

# CONDITION LABEL: in n-propanol, 288.15 K
PROPERTY NAME: solubility (mole fraction)
Kindly provide the number alone.

The compound listed as CCOc1ccc(C=O)cc1O shows solubility (mole fraction) equal to 0.0065

====

# CONDITION LABEL: in acetonitrile, 288.15 K
PROPERTY NAME: solubility (mole fraction)
Kindly provide the number alone.

The compound listed as CCOc1ccc(C=O)cc1O shows solubility (mole fraction) equal to 0.0133

====

# CONDITION LABEL: in n-propanol, 313.15 K
PROPERTY NAME: solubility (mole fraction)
Kindly provide the number alone.

The molecule listed as CCOc1ccc(C=O)cc1O shows solubility (mole fraction) equal to 0.0194

====

# CONDITION LABEL: in ethanol, 288.15 K
PROPERTY NAME: solubility (mole fraction)
Kindly provide the number alone.

The compound listed as CCOc1ccc(C=O)cc1O shows solubility (mole fraction) equal to 0.0078

====

# CONDITION LABEL: in acetone, 308.15 K
PROPERTY NAME: solubility (mole fraction)
Kindly provide the number alone.

The compound listed as CCOc1ccc(C=O)cc1O shows solubility (mole fraction) equal to 0.0718

====

# CONDITION LABEL: in toluene, 318.15 K
PROPERTY NAME: solubility (mole fraction)
Kindly provide the number alone.

The compound listed as CCOc1ccc(C=O)cc1O shows solubility (mole fraction) equal to 0.0092

====

# CONDITION LABEL: in THF, 293.15 K
PROPERTY NAME: solubility (mole fraction)
Kindly provide the number alone.

The compound listed as CCOc1ccc(C=O)cc1O shows solubility (mole fraction) equal to 0.071

====

# CONDITION LABEL: in n-propanol, 303.15 K
PROPERTY NAME: solubility (mole fraction)
Kindly provide the number alone.

The molecule listed as CCOc1ccc(C=O)cc1O shows solubility (mole fraction) equal to 0.0118

====

# CONDITION LABEL: in n-propanol, 308.15 K
PROPERTY NAME: solubility (mole fraction)
Kindly provide the number alone.

The compound listed as CCOc1ccc(C=O)cc1O shows solubility (mole fraction) equal to 0.0149

====

# CONDITION LABEL: in acetone, 293.15 K
PROPERTY NAME: solubility (mole fraction)
Kindly provide the number alone.

The compound listed as CCOc1ccc(C=O)cc1O shows solubility (mole fraction) equal to 0.0515

====

# CONDITION LABEL: in n-propanol, 293.15 K
PROPERTY NAME: solubility (mole fraction)
Kindly provide the number alone.

The compound listed as CCOc1ccc(C=O)cc1O shows solubility (mole fraction) equal to 0.0077

====

# CONDITION LABEL: in acetone, 323.15 K
PROPERTY NAME: solubility (mole fraction)
Kindly provide the number alone.

The compound listed as CCOc1ccc(C=O)cc1O shows solubility (mole fraction) equal to 0.114

====

# CONDITION LABEL: in ethanol, 323.15 K
PROPERTY NAME: solubility (mole fraction)
Kindly provide the number alone.

The compound listed as CCOc1ccc(C=O)cc1O shows solubility (mole fraction) equal to 0.0345

====

# CONDITION LABEL: in methyl acetate, 323.15 K
PROPERTY NAME: solubility (mole fraction)
Kindly provide the number alone.

The molecule listed as CCOc1ccc(C=O)cc1O shows solubility (mole fraction) equal to 0.0678

====

# CONDITION LABEL: in ethanol, 308.15 K
PROPERTY NAME: solubility (mole fraction)
Kindly provide the number alone.

The compound listed as CCOc1ccc(C=O)cc1O shows solubility (mole fraction) equal to 0.0179

====

# CONDITION LABEL: in methyl acetate, 313.15 K
PROPERTY NAME: solubility (mole fraction)
Kindly provide the number alone.

The compound listed as CCOc1ccc(C=O)cc1O shows solubility (mole fraction) equal to 0.048

====

# CONDITION LABEL: in acetone, 298.15 K
PROPERTY NAME: solubility (mole fraction)
Kindly provide the number alone.

The compound listed as CCOc1ccc(C=O)cc1O shows solubility (mole fraction) equal to 0.057

====

# CONDITION LABEL: in THF, 318.15 K
PROPERTY NAME: solubility (mole fraction)
Kindly provide the number alone.

The molecule listed as CCOc1ccc(C=O)cc1O shows solubility (mole fraction) equal to 0.138

====

# CONDITION LABEL: in toluene, 323.15 K
PROPERTY NAME: solubility (mole fraction)

The compound listed as CCOc1ccc(C=O)cc1O shows solubility (mole fraction) equal to 0.011

====

# CONDITION LABEL: in ethyl acetate, 323.15 K
PROPERTY NAME: solubility (mole fraction)
Kindly provide the number alone.

The compound listed as CCOc1ccc(C=O)cc1O shows solubility (mole fraction) equal to 0.0606
